studySystem: human recombinant CAIII (Homo sapiens)
Construct: made in house; host or cells: bacterial expression system
Sequence (P07451 whole entry): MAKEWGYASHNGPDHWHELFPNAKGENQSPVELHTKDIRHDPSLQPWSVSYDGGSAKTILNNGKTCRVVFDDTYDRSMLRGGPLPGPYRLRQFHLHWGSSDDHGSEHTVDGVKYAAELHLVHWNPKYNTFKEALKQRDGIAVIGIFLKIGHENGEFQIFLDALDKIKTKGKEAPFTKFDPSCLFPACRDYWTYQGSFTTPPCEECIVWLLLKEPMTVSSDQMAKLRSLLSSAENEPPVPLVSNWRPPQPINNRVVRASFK
experimentNotes: Fluorescence-based thermal shift assay (FTSA), CAIII
Format: binding
details: 37 °C, pH 7.0
Here, each record is paired with measured Kd data.

| smilesData | Kd |
| --- | --- |
| CC1(C)C(/C=C/C2=C(NCCCOCCOCCOCCCNC(=O)CCC(=O)NCCS(=O)(=O)c3c(F)c(F)c(S(N)(=O)=O)c(F)c3NC3CCCCCCC3)C(=C/C=C3\N(CCCCS(=O)(=O)[O-])c4ccccc4C3(C)C)/CCC2)=[N+](CCCCS(=O)(=O)[O-])c2ccccc21.[Na+] | 30 µM |
| CC1(C)C(/C=C/C2=C(Oc3ccc(CCC(=O)NCCCOCCOCCOCCCNC(=O)CCS(=O)(=O)c4c(F)c(F)c(S(N)(=O)=O)c(F)c4NC4CCCCCCC4)cc3)C(=C/C=C3\N(CCCCS(=O)(=O)[O-])c4ccccc4C3(C)C)/CCC2)=[N+](CCCCS(=O)(=O)[O-])c2ccccc21.[Na+] | 30 µM |
| CC1(C)C(/C=C/C2=C(Oc3cccc(CC(=O)NCCCOCCOCCOCCCNC(=O)CCS(=O)(=O)c4c(F)c(F)c(S(N)(=O)=O)c(F)c4NC4CCCCCCC4)c3)C(=C/C=C3\N(CCCCS(=O)(=O)[O-])c4ccccc4C3(C)C)/CCC2)=[N+](CCCCS(=O)(=O)[O-])c2ccccc21.[Na+] | 20 µM |
| CC1(C)C(/C=C/C2=C(Oc3ccc(CCC(=O)NCCOCCOCCOCCOCCOCCOCCOCCOCCOCCOCCOCCNC(=O)CCS(=O)(=O)c4c(F)c(F)c(S(N)(=O)=O)c(F)c4NC4CCCCCCC4)cc3)C(=C/C=C3\N(CCCCS(=O)(=O)[O-])c4ccccc4C3(C)C)/CCC2)=[N+](CCCCS(=O)(=O)[O-])c2ccccc21.[Na+] | 5 µM |

----------
experimentNotes: Absorption, emission and fluorescence quantum yield measurement
Assay type: physicochemical
details: absorption spectrum
Here, each record is paired with measured λabs data.
observedProperty: λabs (nm)

| compound | resultNumber |
| --- | --- |
| CC1(C)C(/C=C/C2=C(Oc3cccc(CC(=O)NCCCOCCOCCOCCCNC(=O)CCS(=O)(=O)c4c(F)c(F)c(S(N)(=O)=O)c(F)c4NC4CCCCCCC4)c3)C(=C/C=C3\N(CCCCS(=O)(=O)[O-])c4ccccc4C3(C)C)/CCC2)=[N+](CCCCS(=O)(=O)[O-])c2ccccc21.[Na+] [GZ21-19] | 783 |
| CC1(C)C(/C=C/C2=C(Oc3ccc(CCC(=O)NCCCOCCOCCOCCCNC(=O)CCS(=O)(=O)c4c(F)c(F)c(S(N)(=O)=O)c(F)c4NC4CCCCCCC4)cc3)C(=C/C=C3\N(CCCCS(=O)(=O)[O-])c4ccccc4C3(C)C)/CCC2)=[N+](CCCCS(=O)(=O)[O-])c2ccccc21.[Na+] [GZ22-1] | 783 |
| CC1(C)C(/C=C/C2=C(Oc3ccc(CCC(=O)NCCOCCOCCOCCOCCOCCOCCOCCOCCOCCOCCOCCNC(=O)CCS(=O)(=O)c4c(F)c(F)c(S(N)(=O)=O)c(F)c4NC4CCCCCCC4)cc3)C(=C/C=C3\N(CCCCS(=O)(=O)[O-])c4ccccc4C3(C)C)/CCC2)=[N+](CCCCS(=O)(=O)[O-])c2ccccc21.[Na+] [GZ22-4] | 783 |
| CC1(C)C(/C=C/C2=C(NCCCOCCOCCOCCCNC(=O)CCC(=O)NCCS(=O)(=O)c3c(F)c(F)c(S(N)(=O)=O)c(F)c3NC3CCCCCCC3)C(=C/C=C3\N(CCCCS(=O)(=O)[O-])c4ccccc4C3(C)C)/CCC2)=[N+](CCCCS(=O)(=O)[O-])c2ccccc21.[Na+] [AZ21-6] | 637 |
